Ref: paper PMC7816196

The compounds listed here are annotated with their solubility at 20 h.
- MEASUREMENT DESCRIPTION: Kinetic aqueous solubility at pH 7.4
- Assay type: physicochemical
- MEASUREMENT PARAMETERS: phosphate buffered saline, pH 7.4, aqueous (kinetic) solubility at pH 7.4; read-out: Solubility

Solved entries:
1) COCCNc1cc(C)nn1-c1nc(C(F)(F)F)cc(=O)[nH]1
≥ 200 µM
2) Cc1cc(NCCN(C)C)n(-c2nc(C(F)(F)F)cc(=O)[nH]2)n1
≥ 200 µM
3) Cc1cc(-c2ccccc2)n(-c2nc(C(F)(F)F)cc(=O)[nH]2)n1
≥ 200 µM
4) Cc1cc(NCCO)n(-c2nc(C(F)(F)F)cc(=O)[nH]2)n1
≥ 200 µM

Query: // query solubility at 20 h value for entry Cc1cc(N)n(-c2nc(C(F)(F)F)cc(=O)[nH]2)n1
Result: ≥ 200 µM

Query: And then Cc1cc(C)n(-c2nc(-c3cccnc3)cc(=O)[nH]2)n1 , what is it?
Result: ≥ 200 µM

Query: Next compound: Cc1nn(-c2nc(C(F)(F)F)cc(=O)[nH]2)c(C)c1Br
Result: ≥ 200 µM

Query: And the next one, Cc1cc(C)n(-c2nc(C(=O)Nc3ccc(F)cc3)cc(=O)[nH]2)n1 ?
Result: ≥ 200 µM

Query: Another compound to check: Cn1ccnc1-c1nc(-c2ccccc2)cc(=O)[nH]1
Result: ≥ 200 µM
